Assign MBC to each entry below.
Tested on: Staphylococcus aureus (ATTC 25923)
Assay: MIC and MBC by modified broth microdilution
Assay type: cell-based
Conditions: Staphylococcus aureus; S. aureus
Hi! Could you send only the number? It should be in µg/mL, unit omitted.

q: Given the entry CC(C)=CCc1c(O)cc(-c2cc3ccc(O)cc3o2)cc1O , report its measured MBC.
a: 64

q: Given the entry CC(=CCc1c(O)cc(-c2cc3ccc(O)cc3o2)cc1O)CO [Compound 1, ω-Hydroxymoracin C] , report its measured MBC.
a: 32

q: Given the entry Oc1cc(O)cc(CCc2ccc(O)c(O)c2)c1 [Compound 4, 3,4, 3′, 5′-tetrahydroxybibenzyl] , report its measured MBC.
a: 256

q: Given the entry Cc1onc(-c2ccccc2)c1C(=O)N[C@@H]1C(=O)N2[C@@H]1SC(C)(C)[C@@H]2C(=O)O [Oxa, Oxacillin, reference compound] , report its measured MBC.
a: 0.125
